IC50: recorded values
- target-of-assay: recombinant 17bHSD4 (M1-N311) (Homo sapiens (Human))
- Sequence (P51659 1-311): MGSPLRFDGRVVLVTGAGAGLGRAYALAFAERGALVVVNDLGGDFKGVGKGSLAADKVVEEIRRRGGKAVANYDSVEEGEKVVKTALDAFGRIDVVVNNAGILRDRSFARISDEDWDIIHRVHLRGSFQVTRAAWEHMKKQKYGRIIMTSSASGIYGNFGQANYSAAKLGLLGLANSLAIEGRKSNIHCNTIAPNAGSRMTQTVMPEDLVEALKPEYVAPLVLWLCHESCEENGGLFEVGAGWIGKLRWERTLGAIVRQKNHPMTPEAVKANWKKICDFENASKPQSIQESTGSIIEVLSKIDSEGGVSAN
- measurement-protocol: In Vitro 17bHSD4 Enzyme Assay
- protocol-conditions: 40 nM 17bHSD4, 0.125 mM NAD, 15 μM Estradiol, 1.5 h; NADH fluorescence; read-out: 17HSD17b4 Enzyme assay IC50
recorded-metric: IC50 (µM)

compound	qualifying-sign	val
COc1ccccc1N1CCN(C(=O)c2noc(-c3cc(F)c(F)c(O)c3F)n2)CC1 [Example 84]	=	19.8
C[C@@H]1C[C@H](C)CN(C(=O)c2nc(-c3cc(F)c(F)c(O)c3F)no2)C1 [Example 111]	>	50
CC1(C)COCCN1C(=O)c1noc(-c2cc(F)c(F)c(O)c2F)n1 [Example 48]	>	50
O=C(c1noc(-c2cc(F)c(F)c(O)c2F)n1)N1CCO[C@H]2CCC[C@H]21 [Example 112]	>	50
N#Cc1c(C(=O)N2CCC(c3ccccc3)C2)noc1-c1ccc(F)c(O)c1 (stereo not drawn) [Example 13]	=	15.6
O=C(c1noc(-c2cc(F)c(F)c(O)c2F)n1)N1CCc2ccccc2C1 [Example 64]	=	5.6
O=C(c1nnc(-c2ccc(F)c(O)c2)o1)N1CCOC2(CCC2)C1 [Example 90]	>	50
O=C(c1cc(-c2ccc(F)c(O)c2)no1)N1CCC(c2ccccc2)C1 (stereo not drawn) [Example 6]	=	89.1
C[C@@H]1CN(C(=O)c2noc(-c3cc(F)c(F)c(O)c3F)n2)[C@H](C)CO1 [Example 50]	>	50
N#Cc1ccc(C2CCN(C(=O)c3noc(-c4cc(F)c(F)c(O)c4F)n3)CC2)cc1 [Example 56]	=	23.5
N#Cc1cccc2c1CCN(C(=O)c1noc(-c3cc(F)c(F)c(O)c3F)n1)C2 [Example 66]	=	19.3
O=C(c1noc(-c2cc(F)c(F)c(O)c2F)n1)N1CCC(c2ccccc2)C1 (stereo not drawn) [Example 96]	=	18

* * *

- target-of-assay: human CB1 receptor expressed in transfected CHO cells (Homo sapiens (Human), UniProt P21554)
- Sequence (P21554 whole entry): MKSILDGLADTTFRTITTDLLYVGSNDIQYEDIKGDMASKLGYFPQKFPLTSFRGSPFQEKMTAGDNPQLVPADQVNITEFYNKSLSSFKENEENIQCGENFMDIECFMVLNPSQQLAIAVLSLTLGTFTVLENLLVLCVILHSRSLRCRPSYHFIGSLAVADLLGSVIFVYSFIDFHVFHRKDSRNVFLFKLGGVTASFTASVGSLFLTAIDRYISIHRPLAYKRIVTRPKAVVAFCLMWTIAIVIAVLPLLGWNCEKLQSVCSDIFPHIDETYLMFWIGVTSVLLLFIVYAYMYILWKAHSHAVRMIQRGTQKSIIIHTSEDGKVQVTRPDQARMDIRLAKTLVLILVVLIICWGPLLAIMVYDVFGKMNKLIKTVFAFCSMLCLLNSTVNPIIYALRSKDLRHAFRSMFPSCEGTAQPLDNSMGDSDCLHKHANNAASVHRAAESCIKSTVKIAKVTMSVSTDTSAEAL
- measurement-protocol: Assay C: CB1 Agonism Assay
- protocol-conditions: agonist activity, cAMP HTRF, read-out: Assay C: CB1 Hu CHO cAMP TRF Ag CR GMean EC50
pEC50: −log10 of the molar value.

molecule	pEC50
CC[C@H]1CN(C(=O)c2noc(-c3cc(F)c(F)c(O)c3F)n2)C[C@@H](C)O1 (racemic) [Example 121]	< 5.00
CC1CN(C(=O)c2noc(-c3cc(F)c(F)c(O)c3F)n2)CC2(CCC2)O1 (racemic) [Example 123]	< 5.52
O=C(c1noc(-c2cc(F)c(F)c(O)c2F)n1)N1CCO[C@H]2CCC[C@@H]21 [Example 115]	< 4.00
C[C@@H]1CN(C(=O)c2ccc(-c3cc(F)c(F)c(O)c3F)s2)C[C@H](C)O1 [Example 3]	< 4.00

* * *

- target-of-assay: over expressed HSD17β13 in HEK293S cells (Homo sapiens (Human), UniProt Q7Z5P4)
- Sequence (Q7Z5P4 20-300): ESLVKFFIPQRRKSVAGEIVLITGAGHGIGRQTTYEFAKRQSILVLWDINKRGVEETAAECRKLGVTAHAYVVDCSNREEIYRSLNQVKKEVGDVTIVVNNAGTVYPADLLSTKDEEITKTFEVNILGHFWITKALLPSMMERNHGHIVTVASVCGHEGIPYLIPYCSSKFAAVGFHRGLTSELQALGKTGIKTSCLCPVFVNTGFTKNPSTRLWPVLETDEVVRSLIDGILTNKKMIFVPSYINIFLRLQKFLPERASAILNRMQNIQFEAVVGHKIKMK
- measurement-protocol: In Vitro 17bHSD13 Cell Assay
- Format: cell-based
- protocol-conditions: HEK293S cells over expressing HSD17β13; estradiol to estrone conversion, 18 h, LC-MS/MS; read-out: 17bHSD1713 Cell assay IC50
- Experimental: In Vitro 17bHSD13 Cell Assay Inhibition of 17bHSD13 was measured in a cell-based assay with over expressed HSD17β13 in HEK293S cells, measuring estradiol to estrone conversion by LCMS/MS. Samples were analyzed using LC-MS/MS. SCIEX LC-MS/MS system: Sample was injected with CTC analytical injector, SHIMATZU LC pumps LC20 and analysed on the SCIEX API 5000 LCMSMS system with the following settings. […] Compound effect was calculated with the formula below; […]
pIC50: −log10 of the molar value.
Values of pIC50 greater than or equal to 6 map to fulfilled; values below map to not fulfilled.

smiles-record	assigned-class
CN(C(=O)c1nnc(-c2ccc(F)c(O)c2)o1)c1nnnn1-c1ccccc1	not fulfilled
Cn1nnc(-c2cnc(N3CCN(C(=O)c4noc(-c5cc(F)c(F)c(O)c5F)n4)CC3)c(Cl)c2)n1	fulfilled
O=C(c1noc(-c2cc(F)c(F)c(O)c2F)n1)N1CCO[C@H]2CCC[C@H]21	fulfilled
C[C@@H]1CC[C@H](C)N1C(=O)c1noc(-c2cc(F)c(F)c(O)c2F)n1	fulfilled
O=C(c1noc(-c2cc(F)c(F)c(O)c2F)n1)N1CCC(Oc2cccnc2)CC1	not fulfilled
C[C@@H]1CN(C(=O)c2cnc(-c3cc(F)c(F)c(O)c3F)s2)C[C@H](C)O1	fulfilled

* * *

- target-of-assay: recombinant 17bHSD13 (N2-K300) (Homo sapiens (Human), UniProt Q7Z5P4)
- Sequence (Q7Z5P4 2-300): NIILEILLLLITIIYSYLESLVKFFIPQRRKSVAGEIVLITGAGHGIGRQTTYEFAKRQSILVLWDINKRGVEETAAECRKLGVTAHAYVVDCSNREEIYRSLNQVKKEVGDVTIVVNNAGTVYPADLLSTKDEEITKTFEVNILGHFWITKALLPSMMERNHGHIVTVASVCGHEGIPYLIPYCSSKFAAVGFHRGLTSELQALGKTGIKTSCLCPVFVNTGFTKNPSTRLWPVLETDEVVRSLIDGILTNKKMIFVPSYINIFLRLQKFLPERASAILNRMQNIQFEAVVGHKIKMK
- measurement-protocol: In Vitro 17bHSD13 Enzyme Assay
- protocol-conditions: 80 nM 17bHSD13, 0.5 mM NAD, 20 μM Estradiol, 2.5 h; estradiol to estrone by LC-MS/MS

compound	target-of-assay	IC50, nM
CN(C(=O)c1cc(-c2ccc(F)c(O)c2)no1)c1ccnn1C1CCCCC1	recombinant 17bHSD13 (N2-K300) (Homo sapiens (Human), UniProt Q7Z5P4)	93
N#Cc1c(C(=O)N2CCN(CCCOc3ccc(F)cc3)CC2)noc1-c1cc(F)c(F)c(O)c1F	recombinant 17bHSD13 (N2-K300) (Homo sapiens (Human), UniProt Q7Z5P4)	126
O=C(c1noc(-c2cc(F)c(F)c(O)c2F)n1)N1Cc2ccc(F)cc2C1	recombinant 17bHSD13 (N2-K300) (Homo sapiens (Human), UniProt Q7Z5P4)	134
Cc1cc2nc(CN(C)C(=O)c3noc(-c4cc(F)c(F)c(O)c4F)n3)[nH]c2cc1C	recombinant 17bHSD13 (N2-K300) (Homo sapiens (Human), UniProt Q7Z5P4)	68
C[C@@H]1CN(C(=O)c2noc(-c3cc(F)c(F)c(O)c3F)n2)C[C@H](C)N1	recombinant 17bHSD13 (N2-K300) (Homo sapiens (Human), UniProt Q7Z5P4)	1740
O=C(c1noc(-c2cc(F)c(F)c(O)c2F)n1)N1CC[C@H](c2ccc(Cl)cc2)C1	recombinant 17bHSD13 (N2-K300) (Homo sapiens (Human), UniProt Q7Z5P4)	53
O=C(c1noc(-c2cc(F)c(F)c(O)c2F)n1)N1CC(c2ccc(F)cc2)C1	recombinant 17bHSD13 (N2-K300) (Homo sapiens (Human), UniProt Q7Z5P4)	89
N#Cc1c(C(=O)N2CCN(c3ccccn3)CC2)noc1-c1cc(F)c(F)c(O)c1F	recombinant 17bHSD13 (N2-K300) (Homo sapiens (Human), UniProt Q7Z5P4)	489
O=C(Nc1ccnn1C1CCCCC1)c1cnc(-c2ccc(F)c(O)c2)o1	recombinant 17bHSD13 (N2-K300) (Homo sapiens (Human), UniProt Q7Z5P4)	4340
C[C@@H]1CN(C(=O)c2noc(-c3cc(O)c(F)c(F)c3)n2)C[C@H](C)O1	recombinant 17bHSD13 (N2-K300) (Homo sapiens (Human), UniProt Q7Z5P4)	117
O=C(c1noc(-c2cc(F)c(F)c(O)c2F)n1)N1CC(Oc2ccccc2)C1	recombinant 17bHSD13 (N2-K300) (Homo sapiens (Human), UniProt Q7Z5P4)	75
N#Cc1cccc(C2CN(C(=O)c3noc(-c4cc(F)c(F)c(O)c4F)n3)C2)c1	recombinant 17bHSD13 (N2-K300) (Homo sapiens (Human), UniProt Q7Z5P4)	317
CC1CN(C(=O)c2noc(-c3cc(F)c(F)c(O)c3F)n2)CC2(CCC2)O1 (racemic)	recombinant 17bHSD13 (N2-K300) (Homo sapiens (Human), UniProt Q7Z5P4)	77

* * *

- target-of-assay: over expressed HSD17β13 in HEK293S cells (Homo sapiens (Human))
- measurement-protocol: In Vitro 17bHSD13 Cell Assay
- Format: cell-based
- protocol-conditions: HEK293S cells over expressing HSD17β13; estradiol to estrone conversion, 18 h, LC-MS/MS; read-out: 17bHSD1713 Cell assay IC50
pIC50: −log10 of the molar value.
Values of pIC50 greater than or equal to 6 map to condition met; values below map to condition not met.

compound	target-of-assay	assigned-class
O=C(Nc1ccnn1C1CCCCC1)c1cc(-c2ccc(F)c(O)c2)on1	over expressed HSD17β13 in HEK293S cells (Homo sapiens (Human))	condition not met
COc1ccccc1C1CCN(C(=O)c2noc(-c3cc(F)c(F)c(O)c3F)n2)C1 (stereo not shown)	over expressed HSD17β13 in HEK293S cells (Homo sapiens (Human))	condition met
O=C(c1noc(-c2cc(F)c(F)c(O)c2F)n1)N1CC2CCC(C1)C2(F)F	over expressed HSD17β13 in HEK293S cells (Homo sapiens (Human))	condition met
N#Cc1c(C(=O)N2CCC(c3ccccc3)C2)noc1-c1ccc(F)c(O)c1 (stereo not shown)	over expressed HSD17β13 in HEK293S cells (Homo sapiens (Human))	condition met
C[C@@H]1C[C@H](C)CN(C(=O)c2nc(-c3cc(F)c(F)c(O)c3F)no2)C1	over expressed HSD17β13 in HEK293S cells (Homo sapiens (Human))	condition met
O=C(c1nnc(-c2ccc(F)c(O)c2)o1)N1CCOC2(CCC2)C1	over expressed HSD17β13 in HEK293S cells (Homo sapiens (Human))	condition not met
N#Cc1cccc(C2CN(C(=O)c3noc(-c4cc(F)c(F)c(O)c4F)n3)C2)c1	over expressed HSD17β13 in HEK293S cells (Homo sapiens (Human))	condition not met
C[C@@H]1CN(C(=O)c2noc(-c3cc(F)c(F)c(O)c3F)n2)C[C@H](C)N1	over expressed HSD17β13 in HEK293S cells (Homo sapiens (Human))	condition not met
O=C(c1noc(-c2cc(F)c(F)c(O)c2F)n1)N1CCN(CCOc2ccc(Br)cn2)CC1	over expressed HSD17β13 in HEK293S cells (Homo sapiens (Human))	condition met

Data origin, for the record: patent US20250011311A1
